System: Hepatitis C virus
experiment summary: Antiviral activity against Hepatitis C virus genotype 1a by ELISA
Type: functional, organism-based, Hepacivirus hominis, subtype 1a
Kindly state EC50 for each of the entries shown.
Numbers only, in nM.

Record excerpt, results attached:
compound | readout label | readout value
O=C(Nc1ccc(C#Cc2ccc(NC(=O)[C@@H]3CCCN3C(=O)C(c3ccccc3)N3CCC(O)CC3)cc2)cc1)[C@@H]1CCCN1C(=O)C(c1ccccc1)N1CCC(O)CC1 (single isomer, unassigned; diastereomer 2) | EC50 | 600
CN(C)C(C)(C(=O)N1CCC[C@H]1C(=O)Nc1ccc(C#Cc2ccc(NC(=O)[C@@H]3CCCN3C(=O)C(C)(c3ccccc3)N(C)C)cc2)cc1)c1ccccc1 (stereo in doubt; 5l.1) | EC50 | 100
O=C(Nc1ccc(C#Cc2ccc(NC(=O)[C@@H]3CCCN3C(=O)C(c3ccccc3)N3CCC(O)CC3)cc2)cc1)[C@@H]1CCCN1C(=O)C(c1ccccc1)N1CCC(O)CC1 (stereo in doubt; 5g.1) | EC50 | 0.82
CN(C)C(C)(C(=O)N1CCC[C@H]1C(=O)Nc1ccc(C#Cc2ccc(NC(=O)[C@@H]3CCCN3C(=O)C(C)(c3ccccc3)N(C)C)cc2)cc1)c1ccccc1 (single isomer, unassigned; diastereomer 2) | EC50 | 1080

## Input What value of measured EC50 is listed for CN1CCN(C(C(=O)N2CCC[C@H]2C(=O)Nc2ccc(C#Cc3ccc(NC(=O)[C@@H]4CCCN4C(=O)C(c4ccccc4)N4CCN(C)CC4)cc3)cc2)c2ccccc2)CC1 (single isomer, unassigned; diastereomer 2) ?
## Output 2700
